Value source: the supplement of paper PMC5844555

# System: MYCN
# ASSAY EXPLANATION: 3' UTR reporter interaction score (median-centred robust z-score of log2 firefly/Renilla activity); higher = less repression of the 3' UTR reporter
# ASSAY CONTEXT: HEK293T; 48 h
MEASUREMENT KIND: 3' UTR reporter interaction score

>>> df
                    residues                   measurement_kind  recorded_number
 0   UCCCUGAGACCCUUUAACCUGUG  3' UTR reporter interaction score           -0.334
 1    UUGGUCCCCUUCAACCAGCUGU  3' UTR reporter interaction score            0.117
 2     AAUAAUACAUGGUUGAUCUUU  3' UTR reporter interaction score           -0.572
 3    UAAACGUGGAUGUACUUGCUUU  3' UTR reporter interaction score           -0.319
 4    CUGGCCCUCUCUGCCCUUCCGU  3' UTR reporter interaction score             1.01
 5   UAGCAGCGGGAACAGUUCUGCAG  3' UTR reporter interaction score            0.142
 6     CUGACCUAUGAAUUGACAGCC  3' UTR reporter interaction score             1.31
 7  CUGAAGUGAUGUGUAACUGAUCAG  3' UTR reporter interaction score           -0.441
 8     UGAGGUAGGAGGUUGUAUAGU  3' UTR reporter interaction score            -3.52
 9    AUCACACAAAGGCAACUUUUGU  3' UTR reporter interaction score            0.776
10    ACAUAGAGGAAAUUCCACGUUU  3' UTR reporter interaction score            0.704
11     UCCCACGUUGUGGCCCAGCAG  3' UTR reporter interaction score           -0.504
12       GGGCGCCUGUGAUCCCAAC  3' UTR reporter interaction score           -0.708
13     UGUCAGUUUGUCAAAUACCCC  3' UTR reporter interaction score            0.673
14    AACAUUCAACCUGUCGGUGAGU  3' UTR reporter interaction score             -1.2
15    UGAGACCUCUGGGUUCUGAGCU  3' UTR reporter interaction score            0.725
16   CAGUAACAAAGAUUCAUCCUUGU  3' UTR reporter interaction score             1.32
17       UGGGCGUAUCUGUAUGCUA  3' UTR reporter interaction score            0.906
18     AAAGCGCUUCUCUUUAGAGGA  3' UTR reporter interaction score           -0.629
19    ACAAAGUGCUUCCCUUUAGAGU  3' UTR reporter interaction score           -0.183
20    UGGUCUAGGAUUGUUGGAGGAG  3' UTR reporter interaction score            0.689
21     GUGCCGCCAUCUUUUGAGUGU  3' UTR reporter interaction score            0.415
22    AAAGUGCAUCUUUUUAGAGGAU  3' UTR reporter interaction score             1.77
23    AGGUUACCCGAGCAACUUUGCA  3' UTR reporter interaction score           0.0957
24    UGAGAACUGAAUUCCAUGGGUU  3' UTR reporter interaction score            0.702
